Target: Hepatocyte growth factor receptor (Homo sapiens)
Test: Inhibition of c-Met at 10 uM
PARAMETER: inhibition (%)
Give bare numbers, in %.

Would you please look over these solved cases?
Q: Please look up its inhibition: O=C(Oc1cccc(-c2nc(N3CCOCC3)c3cc4ncccc4n3n2)c1)c1ccco1
Ans: 32.5

Q: Then this molecule: Oc1cccc(-c2nc(N3CCOCC3)c3cc4ncccc4n3n2)c1
Ans: 43.8

For each of the molecules below, state inhibition.
1. O=C(Oc1cccc(-c2nc(N3CCOCC3)c3cc4ncccc4n3n2)c1)c1ccncc1
2. CCCC(=O)Oc1cccc(-c2nc(N3CCOCC3)c3cc4ncccc4n3n2)c1
3. Cc1[nH]c(/C=C2\C(=O)Nc3ccc(S(=O)(=O)N(C)c4cccc(Cl)c4)cc32)c(C)c1C(=O)N1CCN(C)CC1
4. C=CC(=O)Oc1cccc(-c2nc(N3CCOCC3)c3cc4ncccc4n3n2)c1
5. CC(=O)Oc1cccc(-c2nc(N3CCOCC3)c3cc4ncccc4n3n2)c1
6. CCC(=O)Oc1cccc(-c2nc(N3CCOCC3)c3cc4ncccc4n3n2)c1

Ans:
1: 34.8; 2: 33.9; 3: 61.8; 4: 32.8; 5: 29; 6: 31.7

Q: Please look up its inhibition: CCCC(CCC)C(=O)Oc1cccc(-c2nc(N3CCOCC3)c3cc4ncccc4n3n2)c1
Ans: 29
